A collection of variants and their measured KM
B1: glmS ribozyme (parent)
chain: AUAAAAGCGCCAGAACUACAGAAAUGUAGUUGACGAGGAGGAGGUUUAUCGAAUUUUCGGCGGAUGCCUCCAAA

Variants of: B1
Method notes: KM; higher = weaker cofactor use; RNA array
Measurement conditions: with glucosamine-6-phosphate
Parameter: KM (µM)

>>> df
    variant_string  readout_number
 0       C11U A52G            1690
 1       A12G U47A            5500
 2       G32A C71A            2570
 3       A14U C16G            1840
 4       G35A C50G            1190
 5       A14G C58A            4260
 6  U47G U56C A64G            1500
 7             G7A            4040
 8       A12C G40C            2310
 9       U31A A39U            3370
10       C11U A39C            4650
11       U49G C67U            2520
12       A48G U54C            1310
13       G13U U65A            1260
